System: human serum protein
Test: Non-specific adsorption of low-pI TM2 to human serum protein-immobilized magnetic beads
Format: binding
Settings: wild type TM2 = 100
observable: Non-specific binding of serum protein (%)
Form field: result (number plus unit)

Worked cases, Non-specific binding of serum protein (%) given:
>>> result("TM2 R104E: TM2 mutant in which arginine at position 104 was replaced with glutamic acid; SEQ ID NO: 8 (protein, Synthetic TM2 R104E) MSDVQSSLTGTWYNELNSKMELTANKDGTLTGKYLSKVGDVYVPYPLSGRYNLQPPAGQGVALGWAVSWENSKIHSATTWSGQFFSESSPVILTQWLLSSSTAEGDVWESTLVGNDSFTKTAPTEQQIAHAQLHCRAPRLK")
"90%"
>>> result("TM2 K141E: TM2 mutant in which lysine at position 141 was replaced with glutamic acid; SEQ ID NO: 10 (protein, Synthetic TM2 K141E) MSDVQSSLTGTWYNELNSKMELTANKDGTLTGKYLSKVGDVYVPYPLSGRYNLQPPAGQGVALGWAVSWENSKIHSATTWSGQFFSESSPVILTQWLLSSSTARGDVWESTLVGNDSFTKTAPTEQQIAHAQLHCRAPRLE")
"58%"

Please find the next molecule below.
Q. Would you mind telling me what Non-specific binding of serum protein (%) value was observed for TM2: wild type tamavidin 2, biotin-binding protein from Pleurotus cornucopiae, amino acid sequence SEQ ID NO: 2 (protein, listed as Pleurotus cornucopiae) MSDVQSSLTGTWYNELNSKMELTANKDGTLTGKYLSKVGDVYVPYPLSGRYNLQPPAGQGVALGWAVSWENSKIHSATTWSGQFFSESSPVILTQWLLSSSTARGDVWESTLVGNDSFTKTAPTEQQIAHAQLHCRAPRLK ?
A. 100%
